System: HeLa
Assay: Antiproliferative activity against human HeLa cells assessed as growth inhibition at 20 uM viability after 72 hrs by SRB assay relative to control
Assay type: functional
Conditions: read-out: GI
Catalogue of inhibition of growth at 20 µM readings, one per entry.
# number only, unit % dropped from output

The cases that follow already have their inhibition of growth at 20 µM on record.
{"columns": ["Molecule", "Measured target", "inhibition of growth at 20 µM [%]"],
 "data": [
  ["Nc1nc2cccc(Cl)c2s1", "HeLa", 5.3],
  ["Nc1nc2ccc(-c3nc4ccccc4o3)cc2s1", "HeLa", 67.2],
  ["COc1ccc(-c2nc3cc(N)ccc3o2)cc1OC", "HeLa", 2.3]
]}

Input: Please report the measured inhibition of growth at 20 µM for Nc1ccc2sc(N)nc2c1
Output: 9.6

Input: Please report the measured inhibition of growth at 20 µM for Nc1ccc2oc(-c3ccc(Cl)cc3Cl)nc2c1
Output: 6

Input: Please report the measured inhibition of growth at 20 µM for Nc1ccc(-c2nc3cc(N)ccc3[nH]2)cc1
Output: 4

Input: Please report the measured inhibition of growth at 20 µM for COc1ccc2sc(N)nc2c1
Output: 12.2

Input: Please report the measured inhibition of growth at 20 µM for O=S(=O)(O)c1nc2ccccc2s1
Output: 25
